# Measurement Target: human Kv 1.5 (Homo sapiens, UniProt P22460)
# Construct: expressed in transfected cells; host or cells: mouse L-929 fibroblasts stably expressing human Kv1.5
# Sequence (P22460 whole entry): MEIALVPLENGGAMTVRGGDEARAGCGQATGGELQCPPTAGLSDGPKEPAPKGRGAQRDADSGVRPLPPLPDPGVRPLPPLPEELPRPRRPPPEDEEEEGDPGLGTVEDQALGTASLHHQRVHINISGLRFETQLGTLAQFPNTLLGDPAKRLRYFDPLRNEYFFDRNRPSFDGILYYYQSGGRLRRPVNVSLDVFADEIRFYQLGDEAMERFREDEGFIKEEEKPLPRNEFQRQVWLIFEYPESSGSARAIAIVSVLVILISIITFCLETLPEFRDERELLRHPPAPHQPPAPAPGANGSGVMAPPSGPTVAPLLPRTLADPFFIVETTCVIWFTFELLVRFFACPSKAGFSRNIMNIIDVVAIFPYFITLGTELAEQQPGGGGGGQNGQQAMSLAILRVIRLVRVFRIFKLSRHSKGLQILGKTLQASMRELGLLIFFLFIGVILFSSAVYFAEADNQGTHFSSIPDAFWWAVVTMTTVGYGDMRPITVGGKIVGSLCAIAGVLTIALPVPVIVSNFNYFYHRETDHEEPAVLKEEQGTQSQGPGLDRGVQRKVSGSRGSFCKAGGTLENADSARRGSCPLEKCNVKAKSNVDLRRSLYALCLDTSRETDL
# Method Notes: Block of IKur current in patch clamped L-929 cells stably expressing human Kv1.5
# Type: cell-based
# Test Context: L929, 0.3 μM; patch clamped mammalian L-929 cells expressing human Kv1.5 (IKur); read-out: KV1_5% Inh L929 @0.3 μM
# Description: Synders, D. J. et al., “A rapidly activating and slowly inactivating potassium channel cloned from human heart: functional analysis after stable mammalian cell culture expression”, J. Gen. Physiol., 101:513-543 (1993). […]
Measurement Label: inhibition at 0.3 µM (%)

Answered cases to consult:
Query block: Fill in the blank: the reported inhibition at 0.3 µM of `Nc1cncc(-c2cc3cccc(-c4ccccc4)c3c(NCc3ccccn3)n2)c1` is ____.
Result block: 66.2

Query block: Fill in the blank: the reported inhibition at 0.3 µM of `CS(=O)(=O)Nc1cncc(-c2c(Cl)nc(NCc3ccccn3)c3c(-c4ccccc4)cccc23)c1` is ____.
Result block: 98.1

Query block: Fill in the blank: the reported inhibition at 0.3 µM of `NS(=O)(=O)c1cncc(-c2c(Cl)nc(NCc3c(F)cccc3F)c3c(-c4ccccc4)cccc23)c1` is ____.
Result block: 93.6

Query block: Fill in the blank: the reported inhibition at 0.3 µM of `NS(=O)(=O)c1cccc(-c2c(Cl)nc(NCc3ccccn3)c3c(-c4ccccc4)cccc23)c1` is ____.
Result block: 98.4

Query block: Fill in the blank: the reported inhibition at 0.3 µM of `NS(=O)(=O)c1ccc(-c2cc3cccc(-c4ccccc4)c3c(NCc3ccccn3)n2)cc1` is ____.
Result block: 73.4

(I) O=C(O)c1cncc(-c2c(Cl)nc(NCc3ccccn3)c3c(-c4ccccc4)cccc23)c1
(II) NS(=O)(=O)c1cccc(-c2cc3cccc(-c4ccccc4)c3c(NCCCc3ccccc3)n2)c1
(III) CC(=O)Nc1cncc(-c2c(Cl)nc(NCc3ccccn3)c3c(-c4ccccc4)cccc23)c1
Query block: Rank the 3 molecules: largest inhibition at 0.3 µM first, smallest last. Sort the labels as requested; that list is your answer.
Result block: III, I, II

====

# Measurement Target: human Kv 1.5 (Homo sapiens)
# Construct: expressed in transfected cells; host or cells: mouse L-929 fibroblasts stably expressing human Kv1.5
# Method Notes: Block of IKur current in patch clamped L-929 cells stably expressing human Kv1.5
# Format: cell-based
# Test Context: L929, 0.3 μM; patch clamped mammalian L-929 cells expressing human Kv1.5 (IKur); read-out: KV1_5% Inh L929 @0.3 μM
Measurement Label: inhibition at 0.3 µM (%)

Answered cases to consult:
Query block: Which inhibition at 0.3 µM is reported with human Kv 1.5 (Homo sapiens) for this entry: CC(C)CCNc1nc(-c2cncc(S(N)(=O)=O)c2)cc2cccc(-c3ccccc3)c12 [Example 25] ?
Result block: 53.2

Query block: Which inhibition at 0.3 µM is reported with human Kv 1.5 (Homo sapiens) for this entry: CC(C)C(Nc1nc(Cl)c(-c2cncc(S(N)(=O)=O)c2)c2cccc(-c3ccccc3)c12)c1ccccn1 (centres unmarked) [Example 80] ?
Result block: 92.5

Query block: Which inhibition at 0.3 µM is reported with human Kv 1.5 (Homo sapiens) for this entry: NS(=O)(=O)c1cncc(-c2cnc(NCc3ccccc3)c3c(-c4ccccc4)cccc23)c1 [Example 15] ?
Result block: 96.2

(a) NS(=O)(=O)c1cncc(-c2cnc(NCc3ccccn3)c3c(-c4ccccc4)cccc23)c1 [Example 11]
(b) NC(=O)c1ccc(-c2cc3cccc(-c4ccccc4)c3c(NCc3ccccn3)n2)cc1 [Example 42]
Query block: Sort a and b by inhibition at 0.3 µM descending and give the first. Pick one; state its label.
Result block: a

====

# Measurement Target: human Kv 1.5 (Homo sapiens)
# Construct: expressed in transfected cells; host or cells: mouse L-929 fibroblasts stably expressing human Kv1.5
# Method Notes: Block of IKur current in patch clamped L-929 cells stably expressing human Kv1.5
# Format: cell-based
# Test Context: L929, 0.3 μM; patch clamped mammalian L-929 cells expressing human Kv1.5 (IKur); read-out: KV1_5% Inh L929 @0.3 μM
Measurement Label: inhibition at 0.3 µM (%)

Answered cases to consult:
Query block: Fill in the blank: the reported inhibition at 0.3 µM of `N#Cc1nc(NCc2ccccc2)c2c(-c3ccccc3)cccc2c1-c1cncc(S(N)(=O)=O)c1` is ____.
Result block: 88.6

Query block: Fill in the blank: the reported inhibition at 0.3 µM of `NS(=O)(=O)c1cncc(-c2c(Cl)nc(NCc3ccccn3)c3c(-c4ccccc4)cccc23)c1` is ____.
Result block: 99

Query block: Fill in the blank: the reported inhibition at 0.3 µM of `NC(=O)CC(=O)Nc1cccc(-c2c(Cl)nc(NCc3ccccn3)c3c(-c4ccccc4)cccc23)c1` is ____.
Result block: 97.7

Query block: Fill in the blank: the reported inhibition at 0.3 µM of `NS(=O)(=O)c1cncc(-c2cc3cccc(-c4ccccc4)c3c(NCc3ccc(F)cc3F)n2)c1` is ____.
Result block: 54.1

Query block: Fill in the blank: the reported inhibition at 0.3 µM of `NS(=O)(=O)c1cccc(-c2c(Cl)nc(NCc3ccccc3)c3c(-c4ccccc4)cccc23)c1` is ____.
Result block: 91

(a) Cc1c(-c2cncc(S(N)(=O)=O)c2)nc(NCc2ccccn2)c2c(-c3ccccc3)cccc12
(b) CC(=O)Nc1cccc(-c2c(Cl)nc(NCc3ccccn3)c3c(-c4ccccc4)cccc23)c1
Query block: Quick one: lower inhibition at 0.3 µM, a or b ? Pick one; state its label.
Result block: a
(a: 61.4%, b: 96.2%)

====

# Measurement Target: human Kv 1.5 (Homo sapiens, UniProt P22460)
# Construct: expressed in transfected cells; host or cells: mouse L-929 fibroblasts stably expressing human Kv1.5
# Method Notes: Block of IKur current in patch clamped L-929 cells stably expressing human Kv1.5
# Assay type: cell-based
# Test Context: L929, 0.3 μM; patch clamped mammalian L-929 cells expressing human Kv1.5 (IKur); read-out: KV1_5% Inh L929 @0.3 μM
Measurement Label: inhibition at 0.3 µM (%)

Query block: Fill in the blank: the reported inhibition at 0.3 µM of NS(=O)(=O)c1cccc(-c2cc3cccc(-c4ccccc4)c3c(NCc3ccccn3)n2)c1 [Example 36] is ____.
Result block: 94.6

Query block: Fill in the blank: the reported inhibition at 0.3 µM of NS(=O)(=O)c1cncc(-c2cc3cccc(-c4ccccc4)c3c(NCc3ncccc3F)n2)c1 [Example 22] is ____.
Result block: 94

Query block: Fill in the blank: the reported inhibition at 0.3 µM of C1=C(c2cnc(NCc3ccccc3)c3c(-c4ccccc4)cccc23)CCOC1 [Example 28] is ____.
Result block: 76.1

Query block: Fill in the blank: the reported inhibition at 0.3 µM of CNS(=O)(=O)c1cccc(-c2cc3cccc(-c4ccccc4)c3c(NCc3ccccn3)n2)c1 [Example 34] is ____.
Result block: 93.5

(1) NS(=O)(=O)c1cncc(-c2cc3cccc(-c4ccccc4)c3c(NCCOc3ccccc3)n2)c1 [Example 52]
(2) Nc1ccc(-c2c(Cl)nc(NCc3ccccn3)c3c(-c4ccccc4)cccc23)cc1 [Example 68]
(3) CS(=O)(=O)Nc1cccc(-c2cc3cccc(-c4ccccc4)c3c(NCc3ccccn3)n2)c1 [Example 35]
Query block: Write the entries in order, lowest recorded inhibition at 0.3 µM first. Sort the labels as requested; that list is your answer.
Result block: 3, 1, 2
(3: 36.2%, 1: 55.8%, 2: 98.3%)

====

# Measurement Target: human Kv 1.5 (Homo sapiens)
# Construct: expressed in transfected cells; host or cells: mouse L-929 fibroblasts stably expressing human Kv1.5
# Method Notes: Block of IKur current in patch clamped L-929 cells stably expressing human Kv1.5
# Type: cell-based
# Test Context: L929, 0.3 μM; patch clamped mammalian L-929 cells expressing human Kv1.5 (IKur); read-out: KV1_5% Inh L929 @0.3 μM
Measurement Label: inhibition at 0.3 µM (%)

Query block: Fill in the blank: the reported inhibition at 0.3 µM of `COc1cc(-c2c(Cl)nc(NCc3ccccn3)c3c(-c4ccccc4)cccc23)ccn1` is ____.
Result block: 95.6

Query block: Fill in the blank: the reported inhibition at 0.3 µM of `NS(=O)(=O)c1cncc(-c2cc3cccc(-c4ccccc4)c3c(N[C@H]3CCC[C@@H]3OCc3ccccc3)n2)c1` is ____.
Result block: 56.3

Query block: Fill in the blank: the reported inhibition at 0.3 µM of `Cc1cc(C)cc(CNc2nc(-c3cncc(S(N)(=O)=O)c3)cc3cccc(-c4ccccc4)c23)c1` is ____.
Result block: 40.1

Query block: Fill in the blank: the reported inhibition at 0.3 µM of `Nc1ccccc1-c1cc2cccc(-c3ccccc3)c2c(NCc2ccccn2)n1` is ____.
Result block: 52.2

(P) NC(=O)c1cccc(-c2c(Cl)nc(NCc3ccccn3)c3c(-c4ccccc4)cccc23)c1
(Q) NS(=O)(=O)c1cncc(-c2cc3cccc(-c4ccccc4)c3c(NCc3ccccc3Cl)n2)c1
(R) Nc1ccc(-c2cc3cccc(-c4ccccc4)c3c(NCc3ccccn3)n2)cn1
(S) CC(Nc1nc(Cl)c(-c2cccc(S(N)(=O)=O)c2)c2cccc(-c3ccccc3)c12)c1ccccc1 (stereo not drawn)
Query block: Write the entries in order, lowest recorded inhibition at 0.3 µM first. Sort the labels as requested; that list is your answer.
Result block: R, Q, S, P
(R: 22.8%, Q: 34.2%, S: 67.5%, P: 99.3%)

Source listed as patent US9458133B2.
